B1: TCEB3B (parent)
chain: STTALGDKQRKANESKGTRESWDS

- Variants of: B1
- testDetails: protein stability index of a GFP-peptide fusion (GPS, HEK-293T) (PSI 1-6); higher = more stable;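 note: lentivirally expressed fusions sorted by FACS into six bins by GFP to DsRed ratio, PSI derived from sequencing read proportions per bin multiplied by bin number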
- testConditions: c terminus: a fixed tail appended
Field: protein stability index. Provide a value for each of the variants that follow.

Query (variant): STTALGDKQRKMNESKGTRESWDS [A12M] ; field requested: protein stability index
3.83

Also, STTALGDKQRKANESKGTRTSWDS [E20T] please.
4.86

Also, STTNLGDKQRKANESKGTRESWDS [A4N] please.
4.18

Also, STTALGDKQRKANESKGTRESNDS [W22N] please.
5.83

Also, STTALGDKQRKANESKGTRESWHS [D23H] please.
3.81

Also, STTALGDKQRKANESYGTRESWDS [K16Y] please.
3.6

Also, STTALGDKQRKANESKGTRESEDS [W22E] please.
5.67

Also, STTALGDKQRKANQSKGTRESWDS [E14Q] please.
3.54

Also, STTALGDKQRKANESKGTMESWDS [R19M] please.
4.8

Also, STTALGDKSRKANESKGTRESWDS [Q9S] please.
3.71

Also, STTALGDKQRKANEAKGTRESWDS [S15A] please.
4.69

Also, STTAVGDKQRKANESKGTRESWDS [L5V] please.
4.08

Also, STTALGDKQRKANEEKGTRESWDS [S15E] please.
4.97

Also, STTALGDKQRKANESKGTRESWDC [S24C] please.
4.07

Also, STTALGDKQRKASESKGTRESWDS [N13S] please.
4.14

Also, STTSLGDKQRKANESKGTRESWDS [A4S] please.
3.81

Also, STEALGDKQRKANESKGTRESWDS [T3E] please.
4.33

Also, STTALGDKQNKANESKGTRESWDS [R10N] please.
4.14

Also, STTALGDKQRKHNESKGTRESWDS [A12H] please.
3.88

Also, STTALGDKQRKAKESKGTRESWDS [N13K] please.
3.65

Also, STTALGDKQRKANESCGTRESWDS [K16C] please.
2.97

Also, STTALGDKQRKANESKGTREGWDS [S21G] please.
5.25

Also, STTALEDKQRKANESKGTRESWDS [G6E] please.
4.31

Also, STTALGDKQRKANESKGTRMSWDS [E20M] please.
4.54

Also, STTALGDKQRKANESKGTRHSWDS [E20H] please.
4.89

Also, STTALADKQRKANESKGTRESWDS [G6A] please.
3.65

Also, STTALGDKQRKANISKGTRESWDS [E14I] please.
3.81

Also, STTALGDKQRKANESKGTREIWDS [S21I] please.
4.93

Also, STTALGDKFRKANESKGTRESWDS [Q9F] please.
3.29

Also, STTALGDQQRKANESKGTRESWDS [K8Q] please.
4.16

Also, STTALGDKQRKANDSKGTRESWDS [E14D] please.
3.89

Also, STTALGDKQRKANESKGTRESFDS [W22F] please.
5.38

Also, STTALGDKGRKANESKGTRESWDS [Q9G] please.
3.62

Also, STTALGDKQAKANESKGTRESWDS [R10A] please.
4.13

Also, STTALGDKQDKANESKGTRESWDS [R10D] please.
4.76

Also, STTALGPKQRKANESKGTRESWDS [D7P] please.
3.5

Also, STTALKDKQRKANESKGTRESWDS [G6K] please.
3.3

Also, STTALGDKQRKANESKGARESWDS [T18A] please.
4.15

Also, STTALGDKQRKANESKSTRESWDS [G17S] please.
3.71

Also, STTANGDKQRKANESKGTRESWDS [L5N] please.
4.14

Also, STTALGDKQRKANESWGTRESWDS [K16W] please.
3.13

Also, STTAQGDKQRKANESKGTRESWDS [L5Q] please.
4.57

Also, STTALGDKQRKANESKGTRENWDS [S21N] please.
5.19

Also, STTALGDKQRKANESKGVRESWDS [T18V] please.
4.55

Also, STTKLGDKQRKANESKGTRESWDS [A4K] please.
3.78

Also, STTALGDKQRKANESKGTRNSWDS [E20N] please.
4.68

Also, STTFLGDKQRKANESKGTRESWDS [A4F] please.
3.56

Also, STDALGDKQRKANESKGTRESWDS [T3D] please.
3.98

Also, STTALGDKQRKAMESKGTRESWDS [N13M] please.
3.7

Also, STTALGDKQRKANESKGNRESWDS [T18N] please.
4.09

Also, STTALGDKQRKANESKGTREQWDS [S21Q] please.
5.22

Also, SRTALGDKQRKANESKGTRESWDS [T2R] please.
5.3

Also, STTALGDKQRKINESKGTRESWDS [A12I] please.
3.63

Also, STTALGDKQRKANEFKGTRESWDS [S15F] please.
3.94

Also, STTALGDKQRLANESKGTRESWDS [K11L] please.
3.65

Also, STTALGDKQRKANESKGTREMWDS [S21M] please.
5.23

Also, STTALGDKQRKANESKYTRESWDS [G17Y] please.
3.93

Also, STTALGDKQRKANESKGTRESWDH [S24H] please.
3.97

Also, STTALGDKQRKANESKGWRESWDS [T18W] please.
3

Also, STTALGDKQRKANMSKGTRESWDS [E14M] please.
3.65

Also, STTAPGDKQRKANESKGTRESWDS [L5P] please.
4.37

Also, STTALGDKQRVANESKGTRESWDS [K11V] please.
4.07

Also, STTALGDKQRKANESNGTRESWDS [K16N] please.
3.97

Also, SMTALGDKQRKANESKGTRESWDS [T2M] please.
3.94

Also, STTALNDKQRKANESKGTRESWDS [G6N] please.
4.38

Also, STTALGDKQRKANESKGTRLSWDS [E20L] please.
4.6

Also, STTALGDKQRKANESKFTRESWDS [G17F] please.
3.97

Also, STTALGDKQRKANESKGTRESWDM [S24M] please.
4.34

Also, STTALGDKQRKANESKGTRGSWDS [E20G] please.
5

Also, STTALFDKQRKANESKGTRESWDS [G6F] please.
3.12

Also, STTALGDKQRKANESKGTRESWAS [D23A] please.
4.65

Also, STTALGDKQRKANELKGTRESWDS [S15L] please.
3.52

Also, STTALGDKQRKFNESKGTRESWDS [A12F] please.
3.76

Also, STTALGDKQRKANESKGTRPSWDS [E20P] please.
4.89

Also, STTALHDKQRKANESKGTRESWDS [G6H] please.
3.78

Also, STTRLGDKQRKANESKGTRESWDS [A4R] please.
3.34

Also, STTASGDKQRKANESKGTRESWDS [L5S] please.
4.25

Also, STTLLGDKQRKANESKGTRESWDS [A4L] please.
3.49

Also, STTALGDKQRKANESKGTPESWDS [R19P] please.
4.84

Also, STTALGDKVRKANESKGTRESWDS [Q9V] please.
3.85

Also, STTALGDKQRKANESKGTRESWWS [D23W] please.
3.59

Also, STTALGDKQRKANESKGTRECWDS [S21C] please.
4.57

Also, STTALGDKIRKANESKGTRESWDS [Q9I] please.
3.72

Also, STTALGDKQRKANHSKGTRESWDS [E14H] please.
3.88

Also, STTALGDKQRKENESKGTRESWDS [A12E] please.
4.49

Also, SWTALGDKQRKANESKGTRESWDS [T2W] please.
3.16

Also, STTALGDKQRHANESKGTRESWDS [K11H] please.
4.29

Also, STTALGDKQRKAFESKGTRESWDS [N13F] please.
3.67

Also, STTALGDKQRKANEVKGTRESWDS [S15V] please.
3.38

Also, STTALGDKQRKANESKETRESWDS [G17E] please.
4.78

Also, STTALGWKQRKANESKGTRESWDS [D7W] please.
3.39
